molecular target: T1, 5-Helix (HIV-1 group M subtype B, HXB2 (gp41 …, stabilised)); assay: ELISA; settings: one partner purified
T1 construct: also called designed protein based on HIV-1 gp41
metric: F_competitive (signal with 40 nM free 5-Helix / signal without)
Respond with the figure and its unit, in that order.

Data request: Please look up its F_competitive (signal with 40 nM free 5-Helix / signal without): 25C6 bivalent scFv on phage (scFv, V domains shown) VH: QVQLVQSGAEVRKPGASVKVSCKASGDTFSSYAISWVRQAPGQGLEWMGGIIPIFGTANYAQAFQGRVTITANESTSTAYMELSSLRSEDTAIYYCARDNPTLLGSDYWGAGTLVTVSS VL: DIQMTQSPSTLSASIGDRVTITCRASENISSRLAWYQQKPGKAPKLLISNAYHLASGAPSRFSGSGSGTDFTLTISSLQPDDFATYYCQQRSNYPHTFGGGTKLEIK
Data returned: 0.2 fraction
